FYI, the data here is from ChEMBL document CHEMBL4699596.

Assay: Cmax in Balb/c mouse at 30 mg/kg, ip by LC-MS/MS analysis
Type: ADME, organism-based
Parameters: route intraperitoneal, dose 30 mg/kg
Conditions: in vivo
parameter: Cmax (nM)
Answer in nM, number only, no unit symbol.

Look up Cmax for this compound: COc1ccc(CC[C@@H](NC(=O)[C@H](CCCc2ccccc2)NC(=O)CN2CCOCC2)C(=O)N[C@H](Cc2ccc(C)cc2)C(=O)NO)cc1
580

---

Molecular target: Macrophage metalloelastase (Homo sapiens, UniProt P39900)
Sequence (P39900 whole entry, the tested form may be a part): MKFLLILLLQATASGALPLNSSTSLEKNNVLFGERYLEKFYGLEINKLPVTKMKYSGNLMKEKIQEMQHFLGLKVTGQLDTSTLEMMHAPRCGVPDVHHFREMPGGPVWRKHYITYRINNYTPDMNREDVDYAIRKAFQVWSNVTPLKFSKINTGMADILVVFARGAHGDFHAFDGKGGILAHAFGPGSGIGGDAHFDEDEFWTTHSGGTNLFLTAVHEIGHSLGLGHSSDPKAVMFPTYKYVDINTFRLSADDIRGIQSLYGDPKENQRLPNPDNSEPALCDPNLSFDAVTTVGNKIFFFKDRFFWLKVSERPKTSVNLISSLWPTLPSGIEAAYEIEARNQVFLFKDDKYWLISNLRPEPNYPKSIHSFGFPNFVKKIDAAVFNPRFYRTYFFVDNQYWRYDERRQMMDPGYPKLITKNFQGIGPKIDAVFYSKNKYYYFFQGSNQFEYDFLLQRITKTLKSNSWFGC
Test: Inhibition of recombinant human MMP12 catalytic domain (Gly106 to Gly263 residues) expressed in Escherichia coli BL21 Codon Plus cells using 5-FAM/QXL520 FRET peptide as substrate preincubated for 15 mins followed by substrate addition and measured at 3 mins interval for 60 mins by fluorescence assay
Non-standard residues stand in square brackets, D forms with d. Residues, ends and D or L forms follow the SMILES beside them. *: point of attachment. dPhe(4-Cl) = N[C@H](Cc1ccc(Cl)cc1)C(=O)O; dPhe(3-F) = N[C@H](Cc1cccc(F)c1)C(=O)O; dPhe(4-F) = N[C@H](Cc1ccc(F)cc1)C(=O)O; d(hPhe) = N[C@H](CCc1ccccc1)C(=O)O; Bn = c1ccc(C*)cc1; NHOH = ON*
parameter: pIC50
// field semantics: pIC50 = negative decimal log of concentration (mol/L)

Look up pIC50 for this molecule: CC(=O)N[C@@H](COCc1ccccc1)C(=O)N[C@H](CCc1ccccc1)C(=O)N[C@H](Cc1ccc(Cl)cc1)C(=O)NO (Ac-Ser(Bn)-[d(hPhe)]-[dPhe(4-Cl)]-{NHOH})
7.45

Look up pIC50 for this molecule: CC(=O)N[C@@H](COCc1ccccc1)C(=O)N[C@H](CCc1ccccc1)C(=O)N[C@H](Cc1ccc(F)cc1)C(=O)NO (Ac-Ser(Bn)-[d(hPhe)]-[dPhe(4-F)]-{NHOH})
7.38

Look up pIC50 for this molecule: COc1ccc(CC[C@@H](NC(=O)[C@H](COCc2ccccc2)NC(C)=O)C(=O)N[C@H](Cc2ccccc2)C(=O)NO)cc1
7.79

Look up pIC50 for this molecule: CNC(=O)[C@H](Cc1c[nH]c2ccccc12)NC(=O)[C@@H](CC(=O)NO)CC(C)C [ILOMASTAT]
8.62

Look up pIC50 for this molecule: COc1ccc(CCC[C@H](NC(C)=O)C(=O)N[C@H](CCc2ccccc2)C(=O)N[C@H](Cc2ccccc2)C(=O)NO)cc1
7.69

Look up pIC50 for this molecule: CC(=O)N[C@@H](COCc1ccccc1)C(=O)N[C@H](CCc1ccc(C(F)(F)F)cc1)C(=O)N[C@H](Cc1ccccc1)C(=O)NO
7.78

Look up pIC50 for this molecule: CC(=O)N[C@@H](CCCc1ccccc1)C(=O)N[C@H](CCc1ccccc1)C(=O)N[C@H](Cc1ccccc1)C(=O)NO
7.71

Look up pIC50 for this molecule: CC(=O)N[C@@H](COCc1ccccc1)C(=O)N[C@H](CCc1ccccc1)C(=O)N[C@H](Cc1ccccc1)C(=O)NO (Ac-Ser(Bn)-[d(hPhe)]-[dF]-{NHOH})
7.58

Look up pIC50 for this molecule: CC(=O)N[C@@H](COCc1ccccc1)C(=O)N[C@H](CCc1ccccc1)C(=O)N[C@H](Cc1ccc(F)c(F)c1F)C(=O)NO
7.12

Look up pIC50 for this molecule: CC(=O)N[C@@H](COCc1ccccc1)C(=O)N[C@H](CCc1ccccc1)C(=O)N[C@H](Cc1cccc(F)c1)C(=O)NO (Ac-Ser(Bn)-[d(hPhe)]-[dPhe(3-F)]-{NHOH})
7.52
